# credit: patent US20120107330A1

Quick reference for koff among some binders
Target: T1, human TNFR1 (recombinant, R&D Systems cat no. 636-R1/CF, biotinylated) (human, UniProt P19438 30-211, limits assumed, biotinylated with EZ-Link NHS-LC-LC-biotin)
T1 construct: it is not tied to the BIAcore reagent; also called p55; hTNFR1
T1 sequence (looked up): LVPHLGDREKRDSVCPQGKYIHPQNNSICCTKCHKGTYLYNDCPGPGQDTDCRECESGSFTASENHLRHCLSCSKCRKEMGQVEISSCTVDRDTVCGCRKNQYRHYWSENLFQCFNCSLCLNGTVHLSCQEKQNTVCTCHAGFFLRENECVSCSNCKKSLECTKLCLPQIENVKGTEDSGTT
Assay: BIAcore, human TNFR1 on SA chip
Number only, in s⁻¹; omit the unit.

Examples with their reported koff follow.
DOM1h-574-162 (other, VH dAb) VH: EVQLLESGGGLVQPGGSLRLSCAASGFTFFKYSMGWVRQAPGKGLEWVSQISDTADRTYYSHSVKGRFTISRDNSKNTLYLQMNSLRAEDTAVYYCAIYTGRWVPFEYWGQGTLVTVSS :: 4.4e-05
DOM1h-574-109 (other, VH dAb) VH: EVQLLESGGGLVQPGGSLRLSCAASGFTFVKYSMGWVRQAPGKGLEWVSQISDTADRTYYAHSVKGRFTISRDNSKNTLYLQMNSLRAEDTAVYYCAIYTGRWVPFEYWGQGTLVTVSS :: 5.5e-05
DOM1h-574-135 (other, VH dAb) VH: EVQLLESGGGLVQPGGSLRLSCAASGFTFVKYSMGWVRQAPGKGLEWVSQISDTADRTYYTHSVKGRFTISRDNSKNTLYLQMNSLRAEDTAVYYCAIYTGRWVPFEYWGQGTLVTVSS :: 5.2e-05
DOM1h-574-72 (other, VH dAb; expressed in E. coli, purified on Protein A) VH: EVQLLESGGGLVQPGGSLRLSCAASGFTFVKYSMGWVRQAPGKGLEWVSQISNTADRTYYAHSVKGRFTISRDNSKNTLYLQMNSLRAEDTAVYYCAIYTGRWVPFEYWGQGTLVTVSS :: 8.4e-05
DOM1h-574-155 (other, VH dAb) VH: EVQLLESGGGLVQPGGSLRLSCAASGFTFLKYSMGWVRQAPGKGLEWVSQISDTADRTYYAHSVKGRFTISRDNSKNTLYLQMNSLRAEDTAVYYCAIYTGRWVPFEYWGQGTLVTVSS :: 4.3e-05

Query: Reported koff for DOM1h-574-133 (other, VH dAb) VH: EVQLLESGGGLVQPGGSLRLSCAASGFTFVKYSMGWVRQAPGKGLEWVSQISDTADRTYYDHSVKGRFTISRDNSKNTLYLQMNSLRAEDTAVYYCAIYTGRWEPFVYWGQGTLVTVSS : what is it?
Response: 8.8e-05

Query: Reported koff for DOM1h-574-139 (other, VH dAb) VH: EVQLLESGGGLVQPGGSLRLSCAASGFTFLKYSMGWVRQAPGKGLEWVSQISDTADRTYYAHSVKGRFTISRDNSKNTLYLQMNSLRAEDTAVYYCAIYTGRWAPFEYWGQGTLVTVSS : what is it?
Response: 3.7e-05

Query: Reported koff for DOM1h-574-156 (other, VH dAb) VH: EVQLLESGGGLVQPGGSLRLSCAASGFTFFKYSMGWVRQAPGKGLEWVSQISDTADRTYYAHSVKGRFTISRDNSKNTLYLQMNSLRAEDTAVYYCAIYTGRWVPFEYWGQGTLVTVSS : what is it?
Response: 4.3e-05

Query: Reported koff for DOM1h-574-138 (other, VH dAb) VH: EVQLLESGGGLVQPGGSLRLSCAASGFTFFKYSMGWVRQAPGKGLEWVSQISDTADRTYYAHSVKGRFTISRDNSKNTLYLQMNSLRAEDTAVYYCAIYTGRWAPFEYWGQGTLVTVSS : what is it?
Response: 3.8e-05
